System: ovarian cancer cells with (OVCAR8, OVCAR4) or without (OVSAHO, CAOV3) MYC-HSF1 amplification
Assay: Epigenetic inhibitor drug screen, cell viability (Cell Titer Blue)
Assay type: cell-based
Conditions: 10 uM, 48 hrs; average relative cell viability (vs 1% DMSO) of non-amplified cells (OVSAHO, CAOV3) minus that of MYC-HSF1 amplified cells (OVCAR8, OVCAR4); positive = greater response in amplified cells; 10 µM
Counter-ions that a name gives are not always drawn.
# Non Amp - AMP (POC) 10 uM annotations
Could you give me the number in POC? Just the number is fine.

molecule="C[S+]([O-])CCCCN=C=S (centres unmarked)" observable="Non Amp - AMP (POC) 10 uM" data_value=−5.74
molecule=CC[C@@H]1C(=O)N(C)c2cnc(Nc3ccc(C(=O)NC4CCN(C)CC4)cc3OC)nc2N1C1CCCC1 observable="Non Amp - AMP (POC) 10 uM" data_value=15.69
molecule=CCNC(=O)C[C@@H]1N=C(c2ccc(Cl)cc2)c2cc(OC)ccc2-n2c(C)nnc21 observable="Non Amp - AMP (POC) 10 uM" data_value=5.52
molecule=COc1cc2c(cc1OCCCN1CCCC1)N=C(N)C21CCC1 observable="Non Amp - AMP (POC) 10 uM" data_value=11.91
molecule="COc1cccc2c1C(=O)c1c(O)c3c(c(O)c1C2=O)C[C@@](O)(C(=O)CO)C[C@@H]3O[C@H]1C[C@H](N)[C@H](O)[C@H](C)O1 [Doxorubicin (Adriamycin) HCl, Doxorubicin]" observable="Non Amp - AMP (POC) 10 uM" data_value=3.26
molecule=Nc1ccccc1NC(=O)CCCCCCC(=O)Nc1ccccc1 observable="Non Amp - AMP (POC) 10 uM" data_value=30.7
molecule=CCCCCCCCCCCCCCCc1cccc(O)c1C(=O)O observable="Non Amp - AMP (POC) 10 uM" data_value=17.46

Could you now consider this next molecule?
Which Non Amp - AMP (POC) 10 uM is reported for this molecule? N#CC[C@H](C1CCCC1)n1cc(-c2ncnc3[nH]ccc23)cn1 [Ruxolitinib (INCB018424), Ruxolitinib]
−4.311

---

System: ovarian cancer cells with (OVCAR8, OVCAR4) or without (OVSAHO, CAOV3) MYC-HSF1 amplification
Assay: Epigenetic inhibitor drug screen, cell viability (Cell Titer Blue)
Type: cell-based
Details: 10 uM, 48 hrs; average relative cell viability (vs 1% DMSO) of non-amplified cells (OVSAHO, CAOV3) minus that of MYC-HSF1 amplified cells (OVCAR8, OVCAR4); positive = greater response in amplified cells
observable: Non Amp - AMP (POC) 10 uM
Could you give me the number in POC? Just the number is fine.

The examples below pair each entry with its known result.
compound="COc1cc2c(NC3CCN(C(C)C)CC3)nc(C3CCCCC3)nc2cc1OCCCN1CCCC1 [UNC0638]" value_unit=POC data_value=−12.13
compound="Cn1cc(CCn2cnc(-c3cnn(C)c3)c2-c2ccc(C#N)cc2)cn1 [BAZ2-ICR]" value_unit=POC data_value=13.57

Which Non Amp - AMP (POC) 10 uM is reported for this compound? O=C([O-])CCC(O)C(=O)[O-].[Na+].[Na+] (centres unmarked) [a-hydroxyglutaric Acid (sodium salt), a-hydroxyglutaric Acid]
3.785

Another compound to look at: Clc1cc2c(NC3CCCC3)nnc(-c3ccncc3)c2cc1Cl [A-196]
2.334

Another compound to look at: Cl.NC(=O)[C@H](CCCN=C(N)CCl)NC(=O)c1ccccc1 [CI-Amidine (hydrochloride), CI-Amidine]
5.451

Another compound to look at: Cn1ncnc1[C@H]1c2n[nH]c(=O)c3cc(F)cc(c23)N[C@@H]1c1ccc(F)cc1 [BMN 673]
−11.28
